assay: Quantitative High-Throughput drug screen in 47 multiple myeloma cell lines against the NCATS MIPE library collection: MM1R_ATCC cell viability assay (AID 1918981); details: MM1R multiple myeloma cells, CellTiter-Glo viability, 48 h; series mostly up to 45.8 µM; note: nearly all actives have a fitted effect of over 35% in size
Records with an inconclusive call do not appear. The source made the active and inactive calls. Calls come from the whole dose curve; as a rule, active = well fitted cell-killing curve with a large enough effect; inconclusive = small, poorly fitted or top-dose-only effect, or effect the other way; inactive = no such curve, though single readings can be large or run the other way.
Select the matching outcome among active, inactive

Problem: Kindly provide the recorded test outcome for the following compound: COc1ccc(-c2cc(=O)c3c(O)cc(O)cc3o2)cc1O
Solution: active

Problem: GET /call?item= O=C(NOCC(O)CO)c1cc(Br)c(F)c(F)c1Nc1ccc(I)cc1F (configuration not stated) returns the recorded outcome of this test.
Solution: inactive

Problem: Would you mind telling me which call this test gave O=c1[nH]cnc2c1ncn2[C@H]1CC[C@@H](CO)O1 ?
Solution: inactive

Problem: Recorded test outcome, item OC[C@H]1O[C@@H](Oc2cc(O)cc(C=Cc3ccc(O)cc3)c2)[C@H](O)[C@@H](O)[C@H]1O
Solution: inactive

Problem: Kindly provide the recorded test outcome for the following compound: CN(C)Cc1ccc(-c2nc3cccc4c3n2CCNC4=O)cc1
Solution: active

Problem: // return assay outcome for CC(=Cc1ccccc1)C=C1SC(=S)N(CC(=O)O)C1=O
Solution: inactive

Problem: Kindly provide the recorded test outcome for the following compound: Nc1nc(F)nc2c1ncn2[C@@H]1O[C@H](COP(=O)(O)O)[C@@H](O)[C@H]1O
Solution: active
